Recorded values, source patent US20240124451A1.

Biological target: NLRP3 inflammasome (Homo sapiens)
Construct: host or cells: THP-1 human monocytic cells, PMA-treated, stimulated with gramicidin
Sequence (Q96P20 whole entry): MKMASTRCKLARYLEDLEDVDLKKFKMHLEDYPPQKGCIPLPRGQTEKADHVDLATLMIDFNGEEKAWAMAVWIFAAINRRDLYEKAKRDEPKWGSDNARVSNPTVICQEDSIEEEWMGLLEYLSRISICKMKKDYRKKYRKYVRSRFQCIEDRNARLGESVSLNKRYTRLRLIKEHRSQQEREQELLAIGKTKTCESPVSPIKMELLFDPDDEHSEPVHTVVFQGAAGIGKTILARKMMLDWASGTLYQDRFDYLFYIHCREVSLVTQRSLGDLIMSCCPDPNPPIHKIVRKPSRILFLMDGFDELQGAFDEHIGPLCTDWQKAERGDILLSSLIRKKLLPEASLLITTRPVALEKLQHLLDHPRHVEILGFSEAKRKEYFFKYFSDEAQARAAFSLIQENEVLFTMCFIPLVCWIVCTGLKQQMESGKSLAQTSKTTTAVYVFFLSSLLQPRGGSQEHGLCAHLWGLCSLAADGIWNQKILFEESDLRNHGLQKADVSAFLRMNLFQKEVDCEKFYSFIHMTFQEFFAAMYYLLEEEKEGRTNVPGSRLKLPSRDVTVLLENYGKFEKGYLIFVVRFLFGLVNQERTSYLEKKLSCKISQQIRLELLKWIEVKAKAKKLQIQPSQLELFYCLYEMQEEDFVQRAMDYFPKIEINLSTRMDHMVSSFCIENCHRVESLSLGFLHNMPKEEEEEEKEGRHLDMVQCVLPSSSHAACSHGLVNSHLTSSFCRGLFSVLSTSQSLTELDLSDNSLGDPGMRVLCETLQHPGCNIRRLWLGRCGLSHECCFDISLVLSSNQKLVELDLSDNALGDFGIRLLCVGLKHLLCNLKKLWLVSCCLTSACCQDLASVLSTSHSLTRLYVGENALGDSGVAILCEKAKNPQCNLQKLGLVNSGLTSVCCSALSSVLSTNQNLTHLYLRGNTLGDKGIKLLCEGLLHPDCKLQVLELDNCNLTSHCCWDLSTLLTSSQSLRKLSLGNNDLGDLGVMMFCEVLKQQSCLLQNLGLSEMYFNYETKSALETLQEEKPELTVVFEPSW
Assay: ASC-SPECK formation in THP-1 cells after gramicidin stimulation (NLRP3 inflammasome activation)
Type: cell-based
Conditions: PMA-treated human monocytic THP-1 cells, compound 1 h before 12.5 ug/ml gramicidin, 3 h, ASC SPECK imaging; read-out: EC50 (nM) for Examples that inhibit NLRP3 inflammasome activation
Procedure: The ability of compounds to inhibit NLRP3 inflammasome activation was determined in vitro by monitoring formation of the ASC-SPECK in human monocytic THP-1 cells after stimulation. […] Immunofluorescence staining: Anti-ASC antibody (MBL catalog #D086-3) was desalted and labeled with Alexa 488 antibody labeling kit (Thermo catalog #A20181) prior to use as described below. […] The number of DRAQ5 positive cells containing ASC SPECKS were quantified in each well. […]
Criterion: EC50 strictly under 200 nM. Met: True. Not met: False.

Answered cases to consult:
>>> label("CN(C)CC1(O)CCN(c2nnc(-c3ccc(C(F)(F)F)cc3O)c3cccnc23)C1 (racemic) [Example 46]")
"False"
>>> label("CC1CN(c2nnc(-c3ccc(C(F)(F)F)cc3O)c3cccnc23)CC(CO)O1 (single isomer, unassigned) [Example 52]")
"True"
>>> label("Cc1cc(C(F)(F)F)ccc1-c1nnc([C@H]2C[C@@H](C)O[C@@H](C)C2)c2ccccc12 [Example 53]")
"False"

Dear colleague, could you confirm whether EC50 of O=C1CCC2(CCN(c3nnc(-c4ccc(C(F)(F)F)cc4O)c4cccnc34)CC2)O1 [Example 42] falls below 200 nM? Thanks.
False

Dear colleague, could you confirm whether EC50 of C[C@@H]1CN(c2nnc(-c3ccc(C(F)(F)F)cc3O)c3cccnc23)C[C@H](C)C1(F)F [Example 33] falls below 200 nM? Thanks.
False

Dear colleague, could you confirm whether EC50 of C[C@@H]1CN(c2nnc(-c3ccc(C(F)(F)F)cc3O)c3cccnc23)C[C@H](C)S1(=O)=O [Example 26] falls below 200 nM? Thanks.
True

Dear colleague, could you confirm whether EC50 of C[C@]1(O)CCN(c2nnc(-c3ccc(C(F)(F)F)cc3O)c3cnccc23)C1 (single isomer, unassigned) [Example 1] falls below 200 nM? Thanks.
False
